Recorded self-splicing fitness (ln) values for a group of sequences are listed next.
- ASSAY_OVERVIEW: self-splicing fitness, log relative to wild type (ln ratio); higher = more splicing; Tetrahymena group I intron in knt gene, E. coli kanamycin selection, DiMSum; sequences stand for … in CUCUCU…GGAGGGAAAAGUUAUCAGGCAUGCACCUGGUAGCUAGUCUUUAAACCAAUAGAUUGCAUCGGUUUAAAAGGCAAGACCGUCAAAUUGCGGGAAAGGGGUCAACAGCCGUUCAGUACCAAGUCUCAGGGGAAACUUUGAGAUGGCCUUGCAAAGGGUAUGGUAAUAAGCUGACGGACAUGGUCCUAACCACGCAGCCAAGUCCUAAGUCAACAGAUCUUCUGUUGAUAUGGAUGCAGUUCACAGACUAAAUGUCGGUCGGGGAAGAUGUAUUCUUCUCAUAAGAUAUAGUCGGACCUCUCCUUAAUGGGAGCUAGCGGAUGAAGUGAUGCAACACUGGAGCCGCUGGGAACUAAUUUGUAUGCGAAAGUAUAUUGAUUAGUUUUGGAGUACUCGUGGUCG;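 note: selection with 25 µg/mL kanamycin versus none on LB agar overnight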
- STATED_CONDITIONS: 30 °C

| ITEM_SEQUENCE | self-splicing fitness (ln) |
| --- | --- |
| GUGGAGCAAUAUUACGGGUG | -3.8 |
| CUGUAGCAAUAUUACGUUCG | -0.00257 |
| GUUUAGCAAUAUUACGUGCG | -0.649 |
| CGCGAGCAAUAUUACGCAUC | -3.36 |
| CCUUAGCAAUAUUACGUGGG | -2.78 |
| GCGUAGCAAUAUUACGCGUC | -2.75 |
| AGACAGCAAUAUUACGUGGU | -3.66 |
| AGCCAGCAAUAUUACGCAAA | -2.91 |
| UUUCAGCAAUAUUACGGUCU | -1.45 |
| CACUAGCAAUAUUACGACCG | 0.413 |
| AUCCAGCAAUAUUACGGCAG | -1.78 |
| CAAGAGCAAUAUUACGAGGG | -3.17 |
| GAUAAGCAAUAUUACGAAUA | -2.53 |
| ACGGAGCAAUAUUACGACGU | -2.27 |
| GCUUAGCAAUAUUACGGAAU | -1.15 |
| GUUGAGCAAUAUUACGAUGU | -2.43 |
| GUGAAGCAAUAUUACGGUCU | 0.172 |
| UAGUAGCAAUAUUACGCUCA | -0.29 |
| CCUAAGCAAUAUUACGGCAC | -3.72 |
| CUGAAGCAAUAUUACGAGAG | -1.32 |
| AUACAGCAAUAUUACGAGCC | -2.64 |
| GCGUAGCAAUAUUACGUCAG | -1.8 |
| ACUUAGCAAUAUUACGGUUU | -1.23 |
| AAUUAGCAAUAUUACGGUCU | -0.43 |
| CCAUAGCAAUAUUACGUAAU | -3.14 |
| AUGGAGCAAUAUUACGUUAC | -3.1 |
| CGGGAGCAAUAUUACGCCGU | -3.46 |
| CAAAAGCAAUAUUACGGUAG | -0.372 |
| UCAGAGCAAUAUUACGUUAG | -3.86 |
| CUAGAGCAAUAUUACGUAUA | -3.08 |
| UCCGAGCAAUAUUACGCUCU | -3.31 |
| CUUCAGCAAUAUUACGCACA | -2.37 |
| AAGAAGCAAUAUUACGUUUU | -3.3 |
| UCCGAGCAAUAUUACGUGCU | -3.32 |
| ACUAAGCAAUAUUACGAGCU | -0.626 |
| ACCGAGCAAUAUUACGUUGA | -2.98 |
| UAGGAGCAAUAUUACGUCGA | -3.16 |
| CAAAAGCAAUAUUACGCCUG | -1.07 |
| CCUGAGCAAUAUUACGCGGC | -3.57 |
| AUCCAGCAAUAUUACGUUUC | -4.16 |
| UUACAGCAAUAUUACGACAG | -1.02 |
| AUUUAGCAAUAUUACGAUCA | -1.08 |
| CAGUAGCAAUAUUACGGCAU | -4.45 |
| AAAUAGCAAUAUUACGAGAU | -2.1 |
| CAGUAGCAAUAUUACGUGAG | -1.18 |
| CCAGAGCAAUAUUACGUAGC | -3.23 |
| GUCUAGCAAUAUUACGGGCU | -3.5 |
| GCAUAGCAAUAUUACGCUAC | -3.61 |
| GAUGAGCAAUAUUACGUUUA | -3.13 |
| GUCUAGCAAUAUUACGGGUA | -1.28 |
| GUGGAGCAAUAUUACGAGAG | -3.58 |
| GUGUAGCAAUAUUACGGAGU | -2.96 |
